# testSystem: UniProt:P11712
# Sequence (P11712 whole entry): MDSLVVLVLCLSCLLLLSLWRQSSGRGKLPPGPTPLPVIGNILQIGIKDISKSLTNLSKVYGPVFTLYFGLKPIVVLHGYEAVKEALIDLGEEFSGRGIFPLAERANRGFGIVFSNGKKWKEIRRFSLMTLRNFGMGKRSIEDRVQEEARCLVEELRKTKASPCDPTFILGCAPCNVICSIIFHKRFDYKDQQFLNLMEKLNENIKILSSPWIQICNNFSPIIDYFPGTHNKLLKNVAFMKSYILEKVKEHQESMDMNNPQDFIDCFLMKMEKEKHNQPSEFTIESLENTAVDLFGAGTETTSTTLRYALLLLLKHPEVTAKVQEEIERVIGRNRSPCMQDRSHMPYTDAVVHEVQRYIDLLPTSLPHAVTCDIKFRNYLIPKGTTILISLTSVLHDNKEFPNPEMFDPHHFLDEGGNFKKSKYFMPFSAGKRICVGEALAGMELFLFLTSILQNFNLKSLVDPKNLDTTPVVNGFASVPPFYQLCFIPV
# testProtocol: Inhibition of human recombinant CYP2C9 by fluorescence assay
parameterMeasured: IC50

Prompt: Query IC50 on UniProt:P11712 for `NC(=O)c1c(F)ccc(OCc2nc3cc(Cl)ccc3s2)c1F`
Response: > 33.8 µM

----------
# testSystem: Cytochrome P450 3A4 (Homo sapiens)
# Sequence (P08684 whole entry): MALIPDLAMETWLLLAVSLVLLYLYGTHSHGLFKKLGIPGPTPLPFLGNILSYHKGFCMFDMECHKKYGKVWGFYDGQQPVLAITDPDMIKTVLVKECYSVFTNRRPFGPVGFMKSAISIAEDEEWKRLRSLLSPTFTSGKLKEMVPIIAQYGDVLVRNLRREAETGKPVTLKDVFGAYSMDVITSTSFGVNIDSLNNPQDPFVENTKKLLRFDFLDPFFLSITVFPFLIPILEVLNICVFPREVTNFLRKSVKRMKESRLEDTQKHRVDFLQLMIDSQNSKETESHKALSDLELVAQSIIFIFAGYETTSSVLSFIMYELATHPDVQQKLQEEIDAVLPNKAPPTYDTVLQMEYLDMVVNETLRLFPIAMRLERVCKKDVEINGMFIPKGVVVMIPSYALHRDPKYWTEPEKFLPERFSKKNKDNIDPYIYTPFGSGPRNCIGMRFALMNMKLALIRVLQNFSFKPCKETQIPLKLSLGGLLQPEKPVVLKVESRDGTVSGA
# testProtocol: Inhibition of human recombinant CYP3A4 by fluorescence assay
parameterMeasured: IC50

Prompt: Record request: IC50 value, item `NC(=O)c1c(F)ccc(OCc2nc3cc(Cl)ccc3s2)c1F`
Response: > 33.8 µM

----------
# System: Plasma
# testProtocol: Fraction unbound in human plasma at 10 uM by equilibrium dialysis
# Assay type: ADME, cell-free
parameterMeasured: Fu (%)
Give the number; % is assumed, so skip it.

Prompt: Record request: Fu value, item `NC(=O)c1c(F)ccc(OCc2nc3cc(Cl)ccc3s2)c1F`
Response: 1

----------
// reported PPB for each item listed
# Test system: Plasma
# testProtocol: Plasma protein binding in mouse at 10 uM by equilibrium dialysis
# Assay type: ADME, cell-free
Give the number; % is assumed, so skip it.

- structureSmilesString: "CCOc1cnc2sc(COc3ccc(F)c(C(N)=O)c3F)nc2c1"
  assayValue: 89.9
- structureSmilesString: "NC(=O)c1c(F)ccc(OCc2nc3cc(-c4ccccc4)ccc3s2)c1F"
  assayValue: 99.2
- structureSmilesString: "NC(=O)c1c(F)ccc(OCc2nc3cc(Cl)ccc3s2)c1F"
  assayValue: 96.4
- structureSmilesString: "NC(=O)c1c(F)ccc(OCc2nc3cc(-c4ccccc4)cnc3s2)c1F"
  assayValue: 98.5

// next item, PPB requested
Prompt: Record request: PPB value, item `CCOc1ccc2sc(COc3ccc(F)c(C(N)=O)c3F)nc2c1`
Response: 96.4

----------
# testSystem: Cell division protein FtsZ (Staphylococcus aureus)
# testProtocol: Inhibition of Staphylococcus aureus ATCC 29213 FtsZ assessed as lowest drug level required for ballooning of cells by light microscopy
// reported MIC for each item listed
Give the number; µg/mL is assumed, so skip it.

# count of solved cases: 2
- structureSmilesString: "NC(=O)c1c(F)ccc(OCc2ccc3ccccc3n2)c1F"
  MIC (µg/mL): 16
- structureSmilesString: "NC(=O)c1c(F)ccc(OCc2nc3ccccc3s2)c1F"
  MIC (µg/mL): 4

Prompt: Record request: MIC value, item `Cc1csc(COc2ccc(F)c(C(N)=O)c2F)n1`
Response: 16

Prompt: Same question, `Cc1cccc(COc2ccc(F)c(C(N)=O)c2F)n1` this time
Response: 32

Prompt: Same question, `CCCCCCOc1ccc(F)c(C(N)=O)c1F` this time
Response: 8

Prompt: Same question, `NC(=O)c1c(F)ccc(OCc2nc3ccccc3o2)c1F` this time
Response: 256

Prompt: Same question, `Cc1csc(COc2ccc(F)c(C(N)=O)c2F)c1` this time
Response: 32

----------
# testSystem: UniProtKB P0A031
# Sequence (P0A031 whole entry): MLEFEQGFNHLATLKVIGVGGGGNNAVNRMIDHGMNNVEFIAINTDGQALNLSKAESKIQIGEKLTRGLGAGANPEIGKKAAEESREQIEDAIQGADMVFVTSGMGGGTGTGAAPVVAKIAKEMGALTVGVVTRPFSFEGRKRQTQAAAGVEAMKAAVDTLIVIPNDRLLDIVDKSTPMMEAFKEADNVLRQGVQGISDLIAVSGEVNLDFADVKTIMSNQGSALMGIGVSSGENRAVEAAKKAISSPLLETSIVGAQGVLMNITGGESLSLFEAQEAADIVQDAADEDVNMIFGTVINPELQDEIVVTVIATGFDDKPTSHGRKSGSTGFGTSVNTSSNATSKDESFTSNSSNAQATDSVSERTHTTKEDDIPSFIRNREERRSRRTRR
# testProtocol: Inhibition of Staphylococcus aureus ATCC 29213 FtsZ assessed as lowest drug level required for ballooning of cells by light microscopy
parameterMeasured: Activity

# count of solved cases: 2
- structureSmilesString: "NC(=O)c1c(F)ccc(OCc2nc3cc(-c4ccccc4)ccc3s2)c1F"
  testSystem: "UniProtKB P0A031"
  Activity: "0.5 µg/mL"
- structureSmilesString: "NC(=O)c1c(F)ccc(OCc2nc3cc(-c4ncno4)ccc3s2)c1F"
  testSystem: "UniProtKB P0A031"
  Activity: "0.5 µg/mL"

// next item, Activity requested
Prompt: Record request: Activity value, item `NC(=O)c1c(F)ccc(OCc2nc3cc(C(F)(F)F)ccc3s2)c1F`
Response: 0.5 µg/mL
